# MEASUREMENT_PROTOCOL: Toxicity liver stage against HepG2, at 10uM
# Type: cell-based
# Design: test concentration 10 uM, cell line HepG2-A16-CD81EGFP
# CONDITION_LABEL: human, HepG2-A16-CD81EGFP cells; read-out: INHIBITION
What cytotoxicity at 10 µM was measured for each of the following?
Supply the numeric figure in %, leaving out any unit text.

Looking up O=C(CCc1cccnc1)Nc1ccc(OCC2CCOCC2)cc1 , I found its cytotoxicity at 10 µM recorded as -6.01

Briefly, cytotoxicity at 10 µM measured for Cc1nc2c(c(C)c1CC(=O)NCc1ccccc1F)c(=O)[nH]n2C : -5.52

Note to self: cytotoxicity at 10 µM recorded for O=C(CN1CCNCC1)NCc1ccc2sccc2c1 was 1.16

Memo: O=S(=O)(C1CC1)N1CCOC2(COCCN(c3ncccn3)C2)C1 (configuration not stated) , reported cytotoxicity at 10 µM: 8.55

Lab note: CN(C)Cc1cnc2n1CCN(C(=O)Cc1ccsc1)CC2 gave cytotoxicity at 10 µM of -3.95

response.value for O=C([C@@H]1COC[C@H]2CN(C3CCCC3)C[C@H]21)N1CCCO1 (field: cytotoxicity at 10 µM) = -0.262

cytotoxicity at 10 µM reported for this compound COc1cc2nc3n(c(=O)c2cc1OC)CCN(C(C)=O)CC3 : -2.65

response.value for Cc1ccc(OCCN(C)C(=O)CCCN2CCCC2=O)c(C)c1 (field: cytotoxicity at 10 µM) = -8.38

// sample COc1cccc(-c2n[nH]cc2-c2nc(CC3CCN(C)CC3)no2)c1 , its cytotoxicity at 10 µM was -9.98

Noted for Cc1ccc(C(=O)NCC(c2cnn(C)c2)N(C)C)c(O)c1 (configuration not stated) : its cytotoxicity at 10 µM reads -7.93

The measured cytotoxicity at 10 µM associated with CC(C)C(=O)N1CCN(Cc2csc(-c3ncccn3)n2)CC1 reads -5.1

Entry under test: CCN(CC)S(=O)(=O)N1CCCC1C(=O)N1CCSCC1 (configuration not stated) . Its cytotoxicity at 10 µM was -4.71

Briefly, cytotoxicity at 10 µM measured for CSc1nccc(N2CCC3(CCCN(Cc4cccc(C)c4)C3)C2)n1 (configuration not stated) : 12.1

Cn1ncc2c(N[C@@H]3CS(=O)(=O)C[C@H]3O)nc(C(C)(C)C)nc21 has a reported cytotoxicity at 10 µM of -1.32

Notebook: CCN1CCN(C2CCN(Cc3nc(-c4ccoc4)no3)CC2)C1=O , cytotoxicity at 10 µM read as -7.39

// recorded cytotoxicity at 10 µM for Cc1nc2c(N(C)Cc3ccnn3C)nc(N)nc2n1C : -7.42

Measured cytotoxicity at 10 µM, CC(C(=O)NCc1ccco1)N1CCN(Cc2nccn2C)CC1 (configuration not stated) : 7.73

compound O=C(CN1CCN(c2ccnc3c(F)ccc(F)c23)CC1)N1CCCC1 , cytotoxicity at 10 µM observed: 17.4

Query COCC1CN(Cc2ccc3c(c2)OCO3)Cc2ncn(C)c21 (configuration not stated) yields cytotoxicity at 10 µM of 4.18

Entry O=C(NCC(O)c1ccccc1Cl)c1cccc(-n2cnnn2)c1 (configuration not stated) — recorded cytotoxicity at 10 µM = -15.6

Please fill in: cytotoxicity at 10 µM reported for NC(=O)C(NC(=O)c1cc(Cl)c[nH]1)c1ccccc1 (configuration not stated) = -0.589

cytotoxicity at 10 µM measured on O=C1CCC(=O)c2oc3ccc(Br)cc3c2N1 = 2.44

Entry under test: CCCN1CCCC2(CCN(S(=O)(=O)c3cccnc3)C2)C1=O (configuration not stated) . Its cytotoxicity at 10 µM was -2.3

// sample Cc1cccc(Nc2nccnc2C2CCCN2CC(=O)N(C)C)n1 (configuration not stated) , its cytotoxicity at 10 µM was -5.28

Memo: O=C(Nc1cccnc1N1CCSCC1)c1ccc2c(c1)CCC2 , reported cytotoxicity at 10 µM: -2.03

Reported cytotoxicity at 10 µM of Cc1ccc(C(=O)Cc2c(Cl)nc3n(C)c(=O)n(C)c(=O)n23)cc1 : -3.96

Form field cytotoxicity at 10 µM, entry CCn1cnnc1CNC(=O)N1CCOC(c2ccccc2Cl)C1 (configuration not stated) : 9.32

cytotoxicity at 10 µM for COc1ccc(CNC(=O)Nc2cccnc2N2CCCC2)cc1O is -10.7

Notebook: O=C(NCCNc1ncccn1)N1CCc2ccccc2C1 , cytotoxicity at 10 µM read as -5.65

Summary for this compound, Cn1ccnc1C(=O)N1CCC2(CCN2c2ncccn2)C1 (configuration not stated) : cytotoxicity at 10 µM is -0.736

Entry O=C1CC(c2ccncc2)C2(CCN(CCO)CC2)N1 (configuration not stated) ; cytotoxicity at 10 µM = -3.4

# compound NC(=O)N1CCCC(C(=O)NCCc2nc(Cc3ccccc3)no2)C1 (configuration not stated) ; its cytotoxicity at 10 µM = 8.5

So, O=C(Nc1ccc(-c2cscn2)cc1)C1CCCN(Cc2ccon2)C1 (configuration not stated) ? Its cytotoxicity at 10 µM was 0.414

Lab note: measured cytotoxicity at 10 µM of CC(C(=O)Nc1ccnn1C(C)C)N1CCN(Cc2ccccc2)CC1 (configuration not stated) was -7.55

Form field cytotoxicity at 10 µM, entry COC(=O)c1cc(NS(=O)(=O)c2cn(C)cn2)c(F)cc1F : 14.8

get_value(item= Cc1cc(C(=O)N[C@@H]2CCNC[C@H]2O)ccc1Cl , readout=cytotoxicity at 10 µM) returns -18.4

Briefly, cytotoxicity at 10 µM measured for Cc1nn(C)c2c(N3CCN(C(=O)NC4CCCCC4)CC3)ncnc12 : 9.09

The compound listed as Cc1noc(C)c1CN(C)C(=O)c1ccc(C(N)=O)nc1 shows cytotoxicity at 10 µM equal to -4.24

Item: Oc1nc(N2CCCC2)nc2c1CCN(Cc1cccnc1)CC2 | cytotoxicity at 10 µM: -7.25

The compound listed as CCN1CCN(C(=O)c2nc(C)n(-c3ccccc3Cl)n2)CC1 has a reported cytotoxicity at 10 µM of -2.87

Sure, the documented cytotoxicity at 10 µM for CN(CC(=O)Nc1nncs1)CC1CCCN1c1cccnn1 (configuration not stated) is -13.7

Short answer for COc1ccc(F)cc1CN1CCCC1Cn1nc(C)nc1C (configuration not stated) : cytotoxicity at 10 µM was -2.41

Value of measured cytotoxicity at 10 µM for the entry O=C(NCC(O)c1ccoc1)Nc1c(F)cccc1F (configuration not stated) : -5.86

// cytotoxicity at 10 µM lookup, compound = O=C(N1CCOCC1)N1CCC2(CC1)CN(c1ccccn1)CCO2 , result: -78.2

// field: cytotoxicity at 10 µM; key: O=C(NC[C@H]1OC[C@@H](NC2COC2)[C@@H]1O)Nc1ccccc1 ; value = 4.43

response.value for COc1cc(-c2cnnc(NCC3CC3)n2)cc(OC)c1OC (field: cytotoxicity at 10 µM) = 8.11

Please fill in: cytotoxicity at 10 µM reported for Cc1nc(C2CCCN(C(=O)c3ccc(Cn4cccn4)o3)C2)no1 (configuration not stated) = -6.38

* * *

# MEASUREMENT_PROTOCOL: Toxicity liver stage against HepG2, at 10uM
# Format: cell-based
# Design: test concentration 10 uM, cell line HepG2-A16-CD81EGFP
# CONDITION_LABEL: human, HepG2-A16-CD81EGFP cells; read-out: INHIBITION
Would you kindly list cytotoxicity at 10 µM for each of these molecules?
Unit % implied. Number only.

Kindly note the recorded cytotoxicity at 10 µM for CNc1ncc(CN(C)c2ncnc3onc(C)c23)cn1 , which is -16.8

Documented cytotoxicity at 10 µM of CC(=O)NC1CCCN(C(=O)c2ccc(Br)cc2O)C1 (stereo unspecified) : -10.4

Lookup result for N#CC1CCN(C(=O)NCCc2ccc(Cl)s2)CC1 ; measured cytotoxicity at 10 µM: -16.1

Lab note: CCS(=O)(=O)NCCNC(=O)c1cc(Cl)c2c(c1)OCCCO2 gave cytotoxicity at 10 µM of 5.98

Form field cytotoxicity at 10 µM, entry CC(c1cccnc1)N1CCN(CCO)CC1 (stereo unspecified) : -3.21

cytotoxicity at 10 µM reading for Cc1cccc(C)c1OCCC(=O)N1CCC(c2nncn2C)CC1 : -12

* * *

# MEASUREMENT_PROTOCOL: Toxicity liver stage against HepG2, at 10uM
# Assay type: cell-based
# Design: test concentration 10 uM, cell line HepG2-A16-CD81EGFP
# CONDITION_LABEL: human, HepG2-A16-CD81EGFP cells; read-out: INHIBITION
MEASUREMENT_NAME: cytotoxicity at 10 µM (%)
// units = %; emit number, no label

Recorded cytotoxicity at 10 µM (compound CC(C)(C)c1n[nH]c(C2CN(Cc3nnc(C4CCC4)o3)CCO2)n1 (stereo unspecified) ): -8.24

Short answer for COc1cc2cc(C(=O)O)n(C)c2cc1OC : cytotoxicity at 10 µM was 1.03

Notebook: CC(C)S(=O)(=O)NCC1CCCN(C(=O)c2ccc(Cl)cc2)C1 (stereo unspecified) , cytotoxicity at 10 µM read as -3.44

Memo: COc1cccc(CNC(=O)N2CCCC(Cn3cc(CN)nn3)C2)c1 (stereo unspecified) , reported cytotoxicity at 10 µM: -2.07

Entry Cc1ccc(C(=O)NCCCS(=O)(=O)c2ccccc2)c(=O)[nH]1 ; cytotoxicity at 10 µM = -4.97

NC(=O)c1cnc(NC2CC2)nc1CCNC(=O)CC1CCCC1 has a reported cytotoxicity at 10 µM of 3.29

Data provenance is ChEMBL document CHEMBL4513216.
